test system: HOP-92 NSCLC; assay: NCI tumour cell line growth inhibition, 48 h
Where a SMILES comes first, the peptide text is derived from it. The star is where a group is joined. X36 = O=C(c1ccc(-c2ccc(Cl)cc2Cl)o1)*

MOLECULE	QUANTITY UNIT	QUAL	TGI
Cc1ccc(S(=O)(=O)OCC(=O)O)cc1	µM	>	100
CCC(C)C(NC(=O)CNC(=O)C(Cc1ccccc1)NC(=O)C1CCCN1C(=O)c1ccc(-c2ccc(Cl)cc2Cl)o1)C(=O)OC (centres undefined) (X36-PFGI-OMe; configuration not given here)	µM	=	41.9
Cc1ccc2nc(Cl)c(/C=N/N3C(=O)/C(=C/c4ccccc4S)N=C3c3ccccc3)cc2c1	µM	>	100
Cc1cc(N/N=C/c2nc(-c3ccc(Br)cc3)oc2C)c2cc(Br)ccc2n1	µM	=	14.4
COc1cc2c(cc1O)C1Cc3ccc(OC)c(O)c3C(C2)N1C (centres undefined)	µM	>	100
Nc1cccc(Nc2nc3ccccc3nc2NS(=O)(=O)c2ccccc2)c1	µM	=	78
CC(=O)O[C@H]1C#C/C=C\C#CC[C@@H]2C(=O)N[C@@H]12	µM	=	98.9
COc1cccc(C2CC(C)=Nc3c(ccc4c3C(=O)c3ccccc3C4=O)N2)c1O (centres undefined)	µM	>	100
CC(C)S(=O)(=O)c1ccccc1Nc1nc(Nc2cccc(NC(=O)CN)c2)ncc1Cl	µM	=	1.55

* * *

Below, each entry is listed alongside its reported GI50.
test system: NCI-H226 lung; assay: NCI tumour cell line growth inhibition, 48 h
ENDPOINT NAME: GI50

> print(dat)
                           smiles.structure  recorded.measurement
1  Cc1cc(N/N=C/c2nc(-c3ccc(Br)cc3)oc2C)c2cc(Br)ccc2n1               17.9 µM
2  C=C1C(=O)O[C@H]2[C@H]1CC/C(COC(=O)c1ccc(Cl)nc1)=C\CC[C@@]1(C)O[C@@H]21               2.66 µM
3  C1C[OH+]CCNCC[OH+]CC[OH+]CCN1.[Cl-].[Pt+4]              > 100 µM
4  [Au+].[Au+].[Au+].[c-]1nccn1Cc1ccccc1.[c-]1nccn1Cc1ccccc1.[c-]1nccn1Cc1ccccc1               14.6 µM
5           Cc1cc(I)cc(CN(C)CCCN2CCOCC2)c1O               99.9 µM

* * *

Below, each entry is listed alongside its reported TGI.
system: COLO 205 colon; test: NCI tumour cell line growth inhibition, 48 h
Where a SMILES comes first, the peptide text is derived from it. The star is where a group is joined. X36 = O=C(c1ccc(-c2ccc(Cl)cc2Cl)o1)*

COMPOUND	TGI
COC(=O)N/N=C(\C)C(CN1CCCCC1)C(C1=C(O)c2ccccc2OC1)c1ccccc1 (configuration not stated)	> 100 µM
O=C1CCCCC(=O)OC2(CCCCC2=O)CC1 (configuration not stated)	> 100 µM
Cc1cc(C2(O)C=C(C(C)(C)C)C(=O)C(C(C)(C)C)=C2)c(C)cc1C1(O)C=C(C(C)(C)C)C(=O)C(C(C)(C)C)=C1	> 100 µM
O=C(NC(Cc1ccc(I)cc1)C(=O)O)c1ccc(Br)cc1 (configuration not stated)	> 100 µM
O=C1[C@H]2ON(c3ccccc3)C(c3ccc(Cl)cc3)[C@H]2C(=O)N1c1ccc(Cc2ccc(N3C(=O)[C@@H]4ON(c5ccccc5)C(c5ccc(Cl)cc5)[C@@H]4C3=O)cc2)cc1 (some centres not stated)	> 100 µM
NCCSc1nc2ccccc2c(=O)n1-c1ccccc1	> 100 µM
CC1Cn2c(nc3ccccc32)NC1=O (configuration not stated)	> 100 µM
CNC(=O)Oc1ccc(-c2cn3cc(OC(=O)NC)ccc3n2)cc1	> 100 µM
COc1ccc(-c2oc3cc(O)c(OC)c(O)c3c(=O)c2OC)cc1O	28.8 µM
CC(=O)Nc1cc2c(s1)CCC1CC(=O)NN=C21 (configuration not stated)	> 100 µM
O=C(Nc1ccc(-n2cc(-c3ccncc3)c(-c3ccc(Cl)c(O)c3)n2)cc1)Nc1ccc(Cl)c(C(F)(F)F)c1	3.7 µM
CN(NC(=O)c1cccs1)C1=NCCCN1	> 100 µM
Cc1ccc(-c2cc(N)n(-c3nc4c(c(=O)n(C)c(=O)n4C)n3C)n2)cc1	> 100 µM
O=c1[nH]nc(Cc2ccc([N+](=O)[O-])cc2)n1CCO	> 100 µM
CN1NC(=Nc2ccccc2)Sc2c1cnn(-c1ccccc1)c2=O	> 100 µM
CCC(C)(C)c1ccc(OCCCCCCN2CCNCC2)cc1	3.51 µM
COc1ccc(/C=N/N=C(\N)NO)c(O)c1	> 10 µM
CC(=O)OC1CC2C(C)(C)OC(=O)CC(OC(C)=O)[C@]2(C)C2CCC3(C)C(=CCC3[C@H]3COC(=O)C3)[C@]12C (some centres not stated)	> 100 µM
O=c1c2ncn(COCCCl)c2n(-c2ccccc2)c(=S)n1-c1ccccc1	> 100 µM
Oc1cc(C2OCCCO2)cc(O)c1O	> 100 µM
NC(N)=NCCCCCNc1noc(Cc2c[nH]c3cc(Br)ccc23)n1	28.2 µM
CCC(C)C(NC(=O)CNC(=O)C(Cc1ccccc1)NC(=O)C1CCCN1C(=O)c1ccc(-c2ccc(Cl)cc2Cl)o1)C(=O)OC (configuration not stated) (X36-PFGI-OMe; configuration not given here)	> 100 µM
CCn1c(CO)nn(-c2cc(O[C@@H](C)C(F)(F)F)c(C(=O)Nc3c(F)cccc3Cl)cc2F)c1=O	> 100 µM
NC1=NS(=O)(=O)Nc2nc(-c3ccc([N+](=O)[O-])cc3)[nH]c21	> 100 µM
COc1cc2c3c(n(CCCN(C)C)c(=O)c2cc1OC)-c1ccccc1C3=O	> 100 µM
COc1ccc(C2c3cc(OC)c(OC)cc3C(Cc3ccc([N+](=O)[O-])cc3)C2c2ccc([N+](=O)[O-])cc2)cc1OC (configuration not stated)	> 100 µM
C[C@]12CC[C@H](O)C[C@H]1CC[C@@H]1[C@@H]2CC[C@]2(C)[C@@H](C3=CC(=O)OC3)CC[C@]12O	2.32 µM
C[C@]12CC[C@@H]3c4ccc(O)cc4CC[C@H]3[C@@H]1CC[C@@H]2NS(=O)(=O)c1cccc(F)c1	3.61 µM
C1C[OH+]CCNCC[OH+]CC[OH+]CCN1.[Cl-].[Pt+4]	> 100 µM
COc1cc2cccc(N=Cc3cccc(OC)c3OC(C)C)c2cc1OC	> 100 µM
Cc1ccc([C@H]2CC(=O)C[C@H](c3ccc(C)cc3)C23C(=O)c2ccccc2C3=O)cc1	> 100 µM
Cc1c(C2=C(Br)C(=O)N(C)C2=O)c(=O)n(C)c(=O)n1C	34.5 µM
O=S1OC2(c3ccccc3-c3ccccc32)c2ccccc21 (configuration not stated)	> 100 µM
CC(=O)N1N=C(c2ccc3ccccc3c2O)CC1C(=O)c1ccco1 (configuration not stated)	67.6 µM
O=c1c2c([N+](=O)[O-])cccc2nc2[nH]c3ccccc3n12	> 75 µM
Cc1cc(C2CC(O)C(CO)O2)cc2c(=O)[nH]c(N)nc12 (configuration not stated)	> 100 µM
O=c1nc2c(c(-c3ccccc3Cl)[nH]1)COC/C2=C\c1ccccc1Cl	> 100 µM
Cc1cn2c(/C=C3\C(=O)N(C)c4ccc(O)cc43)c(C)nc2s1	27.5 µM
COc1ccc2c(O)cc3c(c2c1)[C@H](CCl)CN3C(=O)c1cc2cc(NC(=O)CCN3CCOCC3)ccc2[se]1	> 10 µM
CC1CCC(=O)C(C(=O)CC2CC(=O)NC(=O)C2)C1 (configuration not stated)	> 100 µM
C=CCSS/C=C/CS(=O)CC=C (configuration not stated)	66.5 µM
CCc1ccc2oc(-c3cc(O)c(-c4nc5cc(CC)ccc5o4)cc3O)nc2c1	> 100 µM

* * *

tested on: MALME-3M melanoma; assay: NCI tumour cell line growth inhibition, 48 h
Where a SMILES comes first, the peptide text is derived from it. The star is where a group is joined. X36 = O=C(c1ccc(-c2ccc(Cl)cc2Cl)o1)*

COMPOUND	TGT	TGI
Cc1cc(N/N=C/c2nc(-c3ccc(Br)cc3)oc2C)c2cc(Br)ccc2n1	MALME-3M melanoma	4.48 µM
C[C@]12CC[C@H](O)C[C@H]1CC[C@@H]1[C@@H]2CC[C@]2(C)[C@@H](C3=CC(=O)OC3)CC[C@]12O	MALME-3M melanoma	0.523 µM
CCC(C)C(NC(=O)CNC(=O)C(Cc1ccccc1)NC(=O)C1CCCN1C(=O)c1ccc(-c2ccc(Cl)cc2Cl)o1)C(=O)OC (centres undefined) (X36-PFGI-OMe; configuration not given here)	MALME-3M melanoma	> 100 µM
Cn1cc(C2=C(c3cn(CCCCCN)c4ccccc34)C(=O)NC2=O)c2ccccc21	MALME-3M melanoma	> 25 µM
N#C/C(=C\n1ccc(=O)[nH]c1=S)C(N)=O	MALME-3M melanoma	> 100 µM
O=C1CC2C(=O)N(Cc3ccccc3)C1C=C2S(=O)(=O)c1ccccc1 (centres undefined)	MALME-3M melanoma	> 100 µM
C=CCNC(=O)N(CCC)CCCCC(NC(C)=O)C(=O)NCc1ccccc1 (centres undefined)	MALME-3M melanoma	> 100 µM
NCCN=C(Nc1ccccc1)Nc1ccccc1	MALME-3M melanoma	> 100 µM
O=c1[nH]/c(=C/c2ccc(OCc3ccccc3)cn2)c(=O)[nH]/c1=C/c1ccc(O)cc1	MALME-3M melanoma	8.67 µM

Provenance of the data: PubChem BioAssay (NCI)
